Tested on: NCI-H460 lung
Use one of these outcomes when replying: active, inactive

### Prompt Hi team, can someone confirm the assay call for CNc1ncc2cc(Oc3ccc(F)cc3F)c(=O)n(C)c2n1 ?
### Response inactive

### Prompt Hi team, can someone confirm the assay call for CCc1nc(N)nc(N)c1C#CC(C)c1cc(-c2ccnc(C)c2)c2oc(C)nc2c1 (stereo not drawn) ?
### Response active

### Prompt Hi team, can someone confirm the assay call for CCCCN(CCCC)CCC(O)c1cc2ccc(C(F)(F)F)cc2c2cc(C(F)(F)F)ccc12 (stereo not drawn) ?
### Response inactive

### Prompt Hi team, can someone confirm the assay call for CNC(=O)c1cncc(/C=C/c2c(Cl)cccc2Cl)c1 ?
### Response inactive

### Prompt Hi team, can someone confirm the assay call for O=C1c2ccn(CCCCN(CCO)CCO)c2C(=O)c2c1c(O)c1ccccc1c2O ?
### Response inactive

### Prompt Hi team, can someone confirm the assay call for CC(=O)n1c(-c2ccc(Cl)c(Cl)c2)cn(-c2ccc(Cl)cc2)c1=O ?
### Response inactive

### Prompt Hi team, can someone confirm the assay call for Cc1ccccc1NC(=O)c1cc2ccccc2cc1O ?
### Response inactive

### Prompt Hi team, can someone confirm the assay call for CC1=NN(C(=O)c2nn(-c3ccc(Cl)cc3)cc2O)C(=O)C1 ?
### Response active
